So I've got a bunch of molecules here, and I need their remaining at 2 h values.
Assay: Metabolic stability in Sprague-Dawley rat liver microsomes assessed as parent compound remaining after 120 mins in presence of NADPH by HPLC-UV-MS analysis
Assay type: ADME, Microsome
Conditions: read-out: Stability
Answer with the number, then the unit.

Sample answers from the record:
>>> result("COc1ccc2c(c1O)NC(=O)CN=C2c1cc(OC)c(OC)c([Se]C)c1")
"66.1%"
>>> result("COc1ccc2c(c1O)NC(=O)CN=C2c1cc(OC)c(OC)c(OC)c1")
"65.3%"

Now, please, on to the next molecule.
remaining at 2 h for COc1ccc(/C=C\c2cc(OC)c(OC)c(OC)c2)cc1O is 17.9%
